# experimental.system: AVPR1B; also: reference of the scale not given here
# protocol.notes: pooled miR-30 sensor sort-seq; sequence = guide strand
# test.conditions: shRNA
Below: a set of entries, each annotated with reported sensor-assay potency score (higher = more potent).
observable: sensor-assay potency score (higher = more potent)

- chain.sequence: "ATCTTCACTGTTCGGATCTTGG"
  recorded.number: -1.06
- chain.sequence: "TTCACTGTTCGGATCTTGGCCC"
  recorded.number: 0.0628
- chain.sequence: "TTTACAGATCTCATGGCAGATG"
  recorded.number: -1.02
- chain.sequence: "TAGGTGGAGGCAAACATGCTGA"
  recorded.number: -0.677
- chain.sequence: "TTGAAGCCCATGTAGATCCAGG"
  recorded.number: -0.752
- chain.sequence: "TTGGTGGAATCTTCATCAGGGG"
  recorded.number: -0.225
- chain.sequence: "TAGGTTTTTACAGATCTCATGG"
  recorded.number: 0.26
- chain.sequence: "TTTTTACAGATCTCATGGCAGA"
  recorded.number: -0.895
- chain.sequence: "TTTAGGTTTTTACAGATCTCAT"
  recorded.number: -1.13
- chain.sequence: "TTGACTTTTAGGTTTTTACAGA"
  recorded.number: -0.906
- chain.sequence: "TAAGTGCAGCACGAACAGGTGC"
  recorded.number: -0.436
- chain.sequence: "TTCTTGTCCCACACGGACCACA"
  recorded.number: -1.03
- chain.sequence: "TTGGTGACTCTTCAGGCCTGGG"
  recorded.number: -0.954
- chain.sequence: "TGTGTCTTGACTTTTAGGTTTT"
  recorded.number: -1.08
- chain.sequence: "ATCTGGACACTGAAGAAGGGAG"
  recorded.number: -1.3
- chain.sequence: "ATCAGGGGCATTCTTGTCCCAC"
  recorded.number: -1.06
